Target: T1, Human CD137 ECD (human)
T1 construct: entry includes C-terminal His-tag and biotin acceptor peptide; also called human CD137 extracellular domain; 4-1BB
T1 sequence (chain, as listed by the source limits assumed): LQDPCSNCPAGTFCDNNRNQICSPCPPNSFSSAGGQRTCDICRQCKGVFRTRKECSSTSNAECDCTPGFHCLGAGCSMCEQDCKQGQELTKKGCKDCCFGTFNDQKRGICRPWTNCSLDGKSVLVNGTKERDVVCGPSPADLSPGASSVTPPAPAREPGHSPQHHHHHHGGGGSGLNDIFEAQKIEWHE
Assay: Biacore SPR, vs parent H183/L072
Parameter measured: fold change of affinity (fold)
Report only the number, with the unit fold understood.

- Binder: "H183/L072 VL F96Q (antibody, name in Kabat numbering, V domains shown, Dual-Ig) VH: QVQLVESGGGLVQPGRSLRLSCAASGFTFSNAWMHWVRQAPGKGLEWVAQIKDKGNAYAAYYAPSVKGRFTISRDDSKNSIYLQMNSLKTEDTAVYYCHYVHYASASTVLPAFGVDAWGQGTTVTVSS VL: DIVMTQSPLSLPVTPGEPASISCQASQELVHMNRNTYLHWYQQKPGQAPRLLIYKVSNRFPGVPDRFSGSGSGTDFTLKISRVEAEDVGVYYCAQGTSVPQTFGQGTKLEIK"
  Parameter measured: "fold change of affinity"
  Reported value: 0

Now consider the entry below.
INPUT: Which fold change of affinity value belongs to H183/L072 VL T31I (antibody, name in Kabat numbering, V domains shown, Dual-Ig) VH: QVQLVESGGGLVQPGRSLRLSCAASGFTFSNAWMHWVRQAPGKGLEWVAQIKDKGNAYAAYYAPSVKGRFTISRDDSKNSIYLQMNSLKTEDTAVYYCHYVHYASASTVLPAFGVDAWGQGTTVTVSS VL: DIVMTQSPLSLPVTPGEPASISCQASQELVHMNRNIYLHWYQQKPGQAPRLLIYKVSNRFPGVPDRFSGSGSGTDFTLKISRVEAEDVGVYYCAQGTSVPFTFGQGTKLEIK ?
OUTPUT: 0.9
